Recorded values, source PubChem BioAssay (Tox21).

assay: A CellTox Green Cytotoxicity Assay to monitor cytotoxicity in HepG2 cells - 0 hour (AID 1224882); settings: CellTox Green fluorescence; series mostly up to 76.8 µM; note: nearly all actives have a fitted effect of over 35% in size
Activity calls are given as the source filed them. Calls come from the whole dose curve; as a rule, active = well fitted activation curve with a large enough effect in the repeat runs; inconclusive = weak or mixed curves; inactive = flat fitted curve, though single readings scatter.
metric: outcome

{"columns": ["compound", "outcome"],
 "data": [
  ["CCC(=O)O", "inactive"],
  ["CS(=O)(=O)c1ccc([C@@H](O)[C@@H](CO)NC(=O)C(Cl)Cl)cc1", "inactive"],
  ["O=C1CCCCC1", "inactive"],
  ["Oc1ccc(OCc2ccccc2)cc1", "inactive"],
  ["CCCCCCCCCCC=CC1CC(=O)OC1=O (stereo unspecified)", "inactive"]
]}

For every record below, what is its outcome?
1. CC1CC(OC(=O)c2ccccc2O)CC(C)(C)C1 (stereo unspecified)
2. CC1=CC[C@H]2C[C@@H]1C2(C)C
3. CCC(C)C=O (stereo unspecified)
4. CC1=C(CC(=O)O)c2cc(F)ccc2/C1=C\c1ccc(S(C)=O)cc1 (stereo unspecified)
5. OC1CCCC1
6. CC(C)(C)C1CCC(O)CC1 (stereo unspecified)

1. inactive
2. inactive
3. inactive
4. inactive
5. inactive
6. inactive
